The reported numbers originate from patent US20230010299A1.

Molecular target: TRPML1 (Homo sapiens, UniProt Q9GZU1)
Construct: expressed in transfected cells
Sequence (Q9GZU1 whole entry): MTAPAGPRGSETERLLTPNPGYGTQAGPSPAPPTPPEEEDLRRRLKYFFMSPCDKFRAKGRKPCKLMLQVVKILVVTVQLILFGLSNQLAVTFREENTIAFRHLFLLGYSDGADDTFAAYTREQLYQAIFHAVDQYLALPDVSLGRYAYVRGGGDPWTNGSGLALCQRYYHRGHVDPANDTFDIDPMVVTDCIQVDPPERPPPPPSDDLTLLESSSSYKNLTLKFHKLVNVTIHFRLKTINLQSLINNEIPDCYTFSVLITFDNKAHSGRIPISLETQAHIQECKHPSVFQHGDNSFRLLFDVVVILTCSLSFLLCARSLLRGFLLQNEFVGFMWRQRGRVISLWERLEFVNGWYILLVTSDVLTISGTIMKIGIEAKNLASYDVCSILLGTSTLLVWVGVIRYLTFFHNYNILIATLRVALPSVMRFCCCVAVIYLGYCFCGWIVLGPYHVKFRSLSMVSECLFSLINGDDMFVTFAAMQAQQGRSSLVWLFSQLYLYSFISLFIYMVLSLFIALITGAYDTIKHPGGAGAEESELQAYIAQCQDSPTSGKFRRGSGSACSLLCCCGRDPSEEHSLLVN
Test: TRPML1 automated patch-clamp (QPatch 16X)
Format: cell-based
Conditions: 0.3 μM compound; HEK T-REx/GcaMP6f/TRPML1 cells; current with compound/current in vehicle; extracellular pH 4.6
Overview of recorded Qpatch Assay TRPML1 agonism Current fold increase Mean ± SEM (n) for various molecules

Take a look at these entries with their results.
Cc1ccc(S(=O)(=O)Nc2ccccc2N2CCN(C(=O)OC(C)(C)C)CC2)cc1 [Example 83] = 70.2 ± 13.8 (4)
CN(C)S(=O)(=O)c1ccc(S(=O)(=O)Nc2ccccc2N2CCC(Oc3cnccn3)CC2)cc1 [Example 77] = 74.4 ± 13.8 (3)
CN(C)S(=O)(=O)c1ccc(S(=O)(=O)Nc2ccccc2N2CCC(C(=O)OC(C)(C)C)CC2)cc1 [Example 76] = 35.6 ± 26.7 (3)
CN(C)S(=O)(=O)c1ccc(S(=O)(=O)Nc2ccccc2N2CCN(C(=O)c3ccccc3)CC2)cc1 [Example 73] = −0.070
CN(C)S(=O)(=O)c1ccc(S(=O)(=O)NCc2ccccc2N2CCCCC2)cc1 [Example 74] = 4.3 ± 2.0 (6)

Entry CN(C)S(=O)(=O)c1ccc(S(=O)(=O)NC2CCCCC2N2CCC(Oc3ccccc3)CC2)cc1 (racemic) [Example 57] : reported Qpatch Assay TRPML1 agonism Current fold increase Mean ± SEM (n) = ?
0.39 ± 0.14 (2)

Do the same for CC(C)CNC(=O)C1CCN(c2ccccc2NS(=O)(=O)c2ccc(S(=O)(=O)N(C)C)cc2)CC1 [Example 88] please
−0.066 ± 0.080 (3)

Do the same for CN(C)S(=O)(=O)c1ccc(S(=O)(=O)Nc2ccccc2N2CCCCCC2)cc1 [Example 85] please
17.7 ± 5.5 (4)

Do the same for CN(C)S(=O)(=O)c1ccc(S(=O)(=O)Nc2ccccc2N2CCC(Oc3ccccn3)CC2)cc1 [Example 75] please
310 ± 147 (4)

Do the same for Cc1ccc(S(=O)(=O)Nc2ccccc2N2CCC(C(=O)OC(C)(C)C)CC2)cc1 [Example 90] please
140 ± 44.1 (4)

* * *

Biological target: TRPML1 (Homo sapiens, UniProt Q9GZU1)
Assay: Cellular TRPML1 assay (FLIPR TETRA, GCaMP6f calcium read-out)
Conditions: HEK T-REx/GCaMP6f/TRPML1 cells; Ca2+ response over 300 s, normalized to ML-SA1 50 μM; Ca2+ free or Optimem condition not given; read-out: Ec50 (Activity of TRPML1 agonists)
Value Kind: EC50 (µM)

COC1CCCN(c2ccccc2NS(=O)(=O)c2ccc(S(=O)(=O)N(C)C)cc2)CC1 (single isomer, unassigned) [Example 42] = 5.6

[P] CN(C)S(=O)(=O)c1ccc(S(=O)(=O)Nc2ccccc2N2CCCOCC2)cc1
[Q] CC1Cc2cc(S(=O)(=O)Nc3ccccc3N3CCN(C(=O)OC(C)(C)C)CC3)ccc2O1 (single isomer, unassigned) [Example 94]
[R] CC1Cc2cc(S(=O)(=O)Nc3ccccc3N3CCN(C(=O)OC(C)(C)C)CC3)ccc2O1 (racemic) [Example 92]
Put the items in order so that reported EC50 rises from first to last. Put the labels in the order asked and list them.
R, Q, P
(R: 2.4 µM, Q: 3.8 µM, P: 7 µM)

* * *

Biological target: TRPML1 (Homo sapiens, UniProt Q9GZU1)
Construct: expressed in transfected cells
Assay: TRPML1 automated patch-clamp (QPatch 16X)
Format: cell-based
Settings: 3.0 μM compound; HEK T-REx/GcaMP6f/TRPML1 cells; current with compound/current in vehicle; extracellular pH 4.6
Overview of recorded Qpatch Assay TRPML1 agonism Current fold increase Mean ± SEM (n) for various compounds

CN(C)S(=O)(=O)c1ccc(S(=O)(=O)Nc2ccccc2N2CCC(OCc3ccccc3)CC2)cc1 [Example 25] = 177.1 ± 38.2 (3)
Cc1ccc(S(=O)(=O)Nc2ccccc2N2CCC(C(=O)OC(C)(C)C)CC2)cc1 [Example 90] = 83.1 ± 34.0 (2)
CCOC(=O)N1CCN(c2ccccc2NS(=O)(=O)c2ccc(S(=O)(=O)N(C)C)cc2)CC1 [Example 70] = 22.5 ± 10.6 (3)
CCCN(C)C(=O)N1CCN(c2ccccc2NS(=O)(=O)c2ccc(S(=O)(=O)N(C)C)cc2)CC1 [Example 82] = 12.5 ± 8.6 (3)
CN(C)S(=O)(=O)c1ccc(S(=O)(=O)Nc2ccccc2N2CCN(C(=O)OC(C)(C)C)CC2)cc1 [Example 13] = 208 ± 15.7 (4)
CN(C)S(=O)(=O)c1ccc(S(=O)(=O)Nc2ccccc2N2CCN(C(=O)c3ccccc3)CC2)cc1 [Example 73] = −0.31

Entry CN(C)S(=O)(=O)c1ccc(S(=O)(=O)Nc2ccccc2N2CCC(Oc3cnccn3)CC2)cc1 [Example 77] : reported Qpatch Assay TRPML1 agonism Current fold increase Mean ± SEM (n) = ?
167 ± 10.7 (3)

Do the same for CC(C)CNC(=O)C1CCN(c2ccccc2NS(=O)(=O)c2ccc(S(=O)(=O)N(C)C)cc2)CC1 [Example 88] please
3.9 ± 2.5 (3)

* * *

Target: TRPML1 (Homo sapiens, UniProt Q9GZU1)
Test: Cellular TRPML1 assay (FLIPR TETRA, GCaMP6f calcium read-out)
Conditions: HEK T-REx/GCaMP6f/TRPML1 cells; Ca2+ response over 300 s, normalized to ML-SA1 50 μM; Ca2+ free or Optimem condition not given; read-out: Ec50 (Activity of TRPML1 agonists)
pEC50: −log10 of the molar value.
Value Kind: pEC50

CN(C)S(=O)(=O)c1ccc(S(=O)(=O)Nc2ccccc2N2CCC(OCc3ccccc3)CC2)cc1 = 5.74

[P] CN(C(=O)c1ccc(S(=O)(=O)N(C)C)cc1)c1ccccc1N1CCCCC1
[Q] CN(C(=O)c1ccc(S(=O)(=O)N(C)C)cc1)c1ccccc1N1CC2CCC1C2 (centres unmarked)
[R] Cc1ccc(S(=O)(=O)Nc2ccccc2N2CCC(Oc3ccccn3)CC2)c(C)c1
[S] CN(C)S(=O)(=O)c1ccc(S(=O)(=O)NC2CCCCC2N2CCC(c3ccccc3)CC2)cc1 (centres unmarked)
Arrange these compounds by their pEC50, starting with the largest number. Put the labels in the order asked and list them.
R, S, Q, P

* * *

Biological target: TRPML1 (Homo sapiens, UniProt Q9GZU1)
Assay: Cellular TRPML1 assay (FLIPR TETRA, GCaMP6f calcium read-out)
Conditions: HEK T-REx/GCaMP6f/TRPML1 cells; Ca2+ response over 300 s, normalized to ML-SA1 50 μM; Ca2+ free or Optimem condition not given; read-out: Ec50 (Activity of TRPML1 agonists)
Value Kind: EC50 (µM)

Take a look at these entries with their results.
CN(C)S(=O)(=O)c1ccc(S(=O)(=O)NC2CCCCC2N2CCC(Oc3ccccc3)CC2)cc1 (racemic) [Example 57] = 3
CC(C)N(C(=O)c1ccc(S(=O)(=O)N(C)C)cc1)c1ccccc1N1CCN(C(=O)OC(C)(C)C)CC1 = 9.4
CN(C)S(=O)(=O)c1ccc(S(=O)(=O)Nc2ccccc2N2CCC(Oc3cccnc3)CC2)cc1 = 5.7
CN(C)S(=O)(=O)c1ccc(S(=O)(=O)Nc2ccccc2N2CCC(Oc3ccccn3)CC2)cc1 = 1.6
CN(C(=O)c1ccc(S(=O)(=O)N(C)C)cc1)c1ccccc1N1CCN(C(=O)OC(C)(C)C)CC1 = 6

[I] CN(C)S(=O)(=O)c1ccc(S(=O)(=O)Nc2ccccc2N2CCCCCC2)cc1
[II] O=S(=O)(Nc1ccccc1N1CCCCC1)c1sccc1C1OCCO1
Lower value for measured EC50? Options: I , II In your reply, give the label of the chosen option.
I
(I: 1.6 µM, II: 33.5 µM)

[1] CN(C)S(=O)(=O)c1ccc(S(=O)(=O)Nc2ccccc2N2CCC(Oc3ncccn3)CC2)cc1
[2] CCCNC(=O)C1CCN(c2ccccc2NS(=O)(=O)c2ccc(S(=O)(=O)N(C)C)cc2)CC1
[3] Cc1ccc(S(=O)(=O)Nc2ccccc2N2CCN(C(=O)OC(C)(C)C)CC2)c2cccnc12
[4] CC(C)CNC(=O)C1CCN(c2ccccc2NS(=O)(=O)c2ccc(S(=O)(=O)N(C)C)cc2)CC1
[5] CC(C)Oc1ccc(S(=O)(=O)Nc2ccccc2N2CCCCC2)cc1
Put the items in order so that reported EC50 rises from first to last. Put the labels in the order asked and list them.
1, 4, 3, 2, 5
(1: 3.2 µM, 4: 6.5 µM, 3: 10.7 µM, 2: 18.5 µM, 5: 54.5 µM)

[I] CN1CCc2cc(S(=O)(=O)Nc3ccccc3N3CCN(C(=O)OC(C)(C)C)CC3)ccc21
[II] CN(C)S(=O)(=O)c1ccc(S(=O)(=O)Nc2ccccc2CN2CCCCC2)cc1
Compare the recorded EC50 of I and II ; state which is larger. In your reply, give the label of the chosen option.
II
(II: 50 µM, I: 3 µM)

[A] CCN(C(=O)c1ccc(S(=O)(=O)N(C)C)cc1)c1ccccc1N1CCN(C(=O)OC(C)(C)C)CC1
[B] Cc1cccc(S(=O)(=O)Nc2ccccc2N2CCCCC2)c1
[C] Cc1cc(S(=O)(=O)Nc2ccccc2N2CCN(C(=O)OC(C)(C)C)CC2)c(C)s1
[D] CN(C)S(=O)(=O)c1ccc(S(=O)(=O)Nc2ccccc2C2CCN(C(=O)OC(C)(C)C)CC2)cc1
[E] CN(C)S(=O)(=O)c1ccc(S(=O)(=O)Nc2ccccc2N2CCc3ccccc3C2)cc1
Put the items in order so that reported EC50 rises from first to last. Put the labels in the order asked and list them.
C, A, D, B, E
(C: 1.6 µM, A: 3.4 µM, D: 6.9 µM, B: 15.5 µM, E: 47.4 µM)

[1] COC1CCCN(c2ccccc2NS(=O)(=O)c2ccc(S(=O)(=O)N(C)C)cc2)CC1 (single isomer, unassigned) [Example 41]
[2] CN(C)S(=O)(=O)c1ccc(S(=O)(=O)Nc2ccccc2N2CCC(c3ccccc3)C2)cc1 (centres unmarked)
[3] CCC(=O)N1CCN(c2ccccc2NS(=O)(=O)c2ccc(S(=O)(=O)N(C)C)cc2)CC1
[4] Cc1ccc(S(=O)(=O)Nc2ccccc2N2CCN(C(=O)OC(C)(C)C)CC2)cc1C
Arrange these compounds by their EC50, starting with the largest number. Put the labels in the order asked and list them.
3, 2, 1, 4
(3: 17.3 µM, 2: 6.3 µM, 1: 4.4 µM, 4: 3 µM)

[a] CN(C)S(=O)(=O)c1ccc(S(=O)(=O)NCc2ccccc2N2CCCCC2)cc1
[b] O=S(=O)(Nc1ccccc1N1CCCCC1)c1cc2ccccc2s1
[c] CC(C)(C)c1ccc(S(=O)(=O)Nc2ccccc2N2CC3CCC2C3)s1 (centres unmarked)
[d] CN(C)S(=O)(=O)c1ccc(S(=O)(=O)Nc2ccccc2N2CC3CCC2C3)cc1 (centres unmarked)
Arrange these compounds by their EC50, starting with the largest number. Put the labels in the order asked and list them.
b, c, d, a
